assay: Equilibrium solubility in water and buffers (saturated shake-flask, 37 °C, 24 h); assay type: physicochemical; conditions: aqueous buffer, thermodynamic from solid; pH 4.5, 37 °C; read-out: Solubility (concentration, mean ± SD)
measured_metric: solubility at 24 h (µg/mL)
Give just the number in µg/mL; leave the unit off.

Consider the molecule CC(C)(C)[C@H](NC(=O)C(F)(F)F)C(=O)N1C[C@H]2[C@@H]([C@H]1C(=O)N[C@H](C#N)C[C@@H]1CCNC1=O)C2(C)C [NRV] and give its measured solubility at 24 h. 974

###

assay: Solubility in organic solvents; assay type: physicochemical; details: propylene glycol, organic solvent or mixture; read-out: Solubility in propylene glycol (crude concentration)
measured_metric: solubility

Consider the molecule CC(C)(C)[C@H](NC(=O)C(F)(F)F)C(=O)N1C[C@H]2[C@@H]([C@H]1C(=O)N[C@H](C#N)C[C@@H]1CCNC1=O)C2(C)C [NRV] and give its measured solubility. < 1600 µg/mL
